Biological target: FGFR3 (UniProt P22607)
Sequence (P22607 whole entry, looked up): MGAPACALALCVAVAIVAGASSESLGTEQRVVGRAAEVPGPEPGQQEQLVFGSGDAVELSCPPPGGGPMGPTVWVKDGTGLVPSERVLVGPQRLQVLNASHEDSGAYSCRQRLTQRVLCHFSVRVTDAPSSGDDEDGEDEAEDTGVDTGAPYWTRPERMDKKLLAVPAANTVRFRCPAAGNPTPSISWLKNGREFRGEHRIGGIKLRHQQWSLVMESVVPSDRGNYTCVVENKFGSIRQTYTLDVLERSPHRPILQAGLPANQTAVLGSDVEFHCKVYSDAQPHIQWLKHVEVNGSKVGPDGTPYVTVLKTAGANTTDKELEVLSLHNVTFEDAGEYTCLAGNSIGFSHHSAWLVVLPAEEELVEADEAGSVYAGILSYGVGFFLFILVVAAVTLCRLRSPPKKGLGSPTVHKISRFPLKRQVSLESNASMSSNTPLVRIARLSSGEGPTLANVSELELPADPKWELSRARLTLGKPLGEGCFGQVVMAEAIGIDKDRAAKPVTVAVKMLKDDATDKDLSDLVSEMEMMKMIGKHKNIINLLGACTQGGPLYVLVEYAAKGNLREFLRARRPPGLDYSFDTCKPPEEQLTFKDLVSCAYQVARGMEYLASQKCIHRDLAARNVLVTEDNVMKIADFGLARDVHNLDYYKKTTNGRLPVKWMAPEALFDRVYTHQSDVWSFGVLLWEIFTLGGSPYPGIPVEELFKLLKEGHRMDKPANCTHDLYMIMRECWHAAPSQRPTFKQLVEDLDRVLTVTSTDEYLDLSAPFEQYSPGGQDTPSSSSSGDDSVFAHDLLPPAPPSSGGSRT
Experiment: phosphorylation enrichment, bacterial display (enrichment ratio); higher = better substrate or ligand; peptides without Tyr show the background;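 also: 11-residue human phosphosite peptides and single-mutation variants displayed on the E. coli surface, counted by deep sequencing, each peptide's frequency after selection divided by its frequency in the unselected input library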;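 also: frequency after pTyr selection over input frequency; kinase dosed for 20-30% of maximal phosphorylation in three min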
Assign met to entries whose phosphorylation enrichment meets or exceeds 0.6; assign not met to the rest.

[ask] Tell me whether phosphorylation enrichment is at least 0.6 here: MTEEQYIKMNR [ARFGEF2_Y797_K794E]
[reply] met

[ask] Tell me whether phosphorylation enrichment is at least 0.6 here: SDVCMYRKNIF [SYNE2_Y570_YF]
[reply] met

[ask] Tell me whether phosphorylation enrichment is at least 0.6 here: HLQQSYLPRGT [TEX45_Y396]
[reply] met

[ask] Tell me whether phosphorylation enrichment is at least 0.6 here: KAVLHYKHQNQ [MTOR_Y1804_E1799K]
[reply] met

[ask] Tell me whether phosphorylation enrichment is at least 0.6 here: NDTAGYFIIGG [SEL1L3_Y399]
[reply] met

[ask] Tell me whether phosphorylation enrichment is at least 0.6 here: KMTGRYEMFAR [UPB1_Y362_YF]
[reply] not met

====

Tested on: Fer (mouse)
Test: phosphorylation enrichment, bacterial display (enrichment ratio); higher = better substrate or ligand; peptides without Tyr show the background
READOUT_LABEL: phosphorylation enrichment
Hey, just send me the number, nothing else.

Known phosphorylation enrichment results, listed for orientation:
> print(dat)
                  primary.sequence               readout.label  reported.measurement
1           NMSRIYSTAKV [ACE_Y151]  phosphorylation enrichment                 0.416
2    IWDLKYTIENP [SND1_Y178_R174W]  phosphorylation enrichment                 0.496
3  LVRAFYCERRW [CARD11_Y970_R975W]  phosphorylation enrichment                  0.59

[ask] Consider the sequence FFRDGHMPRQF [GSS_Y270_Y270H_YF] and give its measured phosphorylation enrichment.
[reply] 0.355

[ask] Consider the sequence LKRIAYFLCLL [LGI1_Y21] and give its measured phosphorylation enrichment.
[reply] 0.714

[ask] Consider the sequence GLRFGYGGLGG [KRTAP20-2_Y15_V17G_YF] and give its measured phosphorylation enrichment.
[reply] 0.368

[ask] Consider the sequence IGDENYGEGSS [ACO2_Y665] and give its measured phosphorylation enrichment.
[reply] 0.518

[ask] Consider the sequence ANNPLYKEVTS [ITGB3_Y773_A776V] and give its measured phosphorylation enrichment.
[reply] 0.486

[ask] Consider the sequence KALSLYTKLMN [STAM_Y371_E366K] and give its measured phosphorylation enrichment.
[reply] 0.588

====

Target: Jak2 (UniProt O60674)
Sequence (O60674 whole entry, looked up): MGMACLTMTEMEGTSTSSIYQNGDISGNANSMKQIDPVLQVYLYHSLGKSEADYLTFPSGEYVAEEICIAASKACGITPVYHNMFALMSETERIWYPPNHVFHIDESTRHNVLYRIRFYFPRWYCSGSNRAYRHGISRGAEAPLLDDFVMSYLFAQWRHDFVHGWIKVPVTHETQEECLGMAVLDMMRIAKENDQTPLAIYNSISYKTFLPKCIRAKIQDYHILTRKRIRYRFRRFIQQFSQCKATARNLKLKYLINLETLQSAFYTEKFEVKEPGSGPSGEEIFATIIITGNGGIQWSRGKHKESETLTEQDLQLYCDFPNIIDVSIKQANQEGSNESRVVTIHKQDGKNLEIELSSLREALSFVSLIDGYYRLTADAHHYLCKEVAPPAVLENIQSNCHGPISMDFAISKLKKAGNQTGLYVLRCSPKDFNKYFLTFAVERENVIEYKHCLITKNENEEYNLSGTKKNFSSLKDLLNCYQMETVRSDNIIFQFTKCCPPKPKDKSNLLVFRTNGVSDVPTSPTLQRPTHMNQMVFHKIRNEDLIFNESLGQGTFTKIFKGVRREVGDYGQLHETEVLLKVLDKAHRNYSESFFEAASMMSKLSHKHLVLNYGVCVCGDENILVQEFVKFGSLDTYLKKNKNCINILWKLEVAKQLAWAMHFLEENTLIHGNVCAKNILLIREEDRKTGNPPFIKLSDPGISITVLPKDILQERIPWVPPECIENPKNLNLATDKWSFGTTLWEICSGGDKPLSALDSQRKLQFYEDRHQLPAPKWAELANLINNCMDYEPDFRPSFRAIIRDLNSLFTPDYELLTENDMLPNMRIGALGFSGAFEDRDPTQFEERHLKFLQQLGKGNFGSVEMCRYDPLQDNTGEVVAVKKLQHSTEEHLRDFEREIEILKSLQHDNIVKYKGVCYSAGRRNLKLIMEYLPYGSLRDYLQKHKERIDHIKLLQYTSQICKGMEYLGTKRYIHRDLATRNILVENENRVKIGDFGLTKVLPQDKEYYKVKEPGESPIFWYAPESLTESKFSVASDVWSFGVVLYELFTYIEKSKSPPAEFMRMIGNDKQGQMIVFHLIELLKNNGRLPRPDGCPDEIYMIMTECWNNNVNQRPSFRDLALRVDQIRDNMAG
Test: phosphorylation enrichment, bacterial display (enrichment ratio); higher = better substrate or ligand; peptides without Tyr show the background
READOUT_LABEL: phosphorylation enrichment
Hey, just send me the number, nothing else.

Known phosphorylation enrichment results, listed for orientation:
> print(dat)
                    primary.sequence              tested.on  reported.measurement
1  SPPILYSFFLN [FCRL6_Y239_D244N_YF]  Jak2 (UniProt O60674)                  1.05
2            LARDMYDKEYY [MET_Y1230]  Jak2 (UniProt O60674)                  1.41
3    ATDLAYFLVCK [ASL_Y375_R379C_YF]  Jak2 (UniProt O60674)                  2.42
4            ADIETYLLEKS [MYH7_Y266]  Jak2 (UniProt O60674)                 0.871

[ask] For the record WSRAMYPDLGP [STARD8_Y330] , what value of phosphorylation enrichment is listed for Jak2 (UniProt O60674)?
[reply] 0.579

[ask] For the record IRRQGYSHRIL [MYO3B_Y993] , what value of phosphorylation enrichment is listed for Jak2 (UniProt O60674)?
[reply] 0.475

[ask] For the record YRDALYKFIVD [PHEX_Y250_M253I] , what value of phosphorylation enrichment is listed for Jak2 (UniProt O60674)?
[reply] 1

[ask] For the record RREQDYTNLPS [CSF1R_Y923_R921Q] , what value of phosphorylation enrichment is listed for Jak2 (UniProt O60674)?
[reply] 0.449

[ask] For the record FADIAYSFRHG [PAH_Y166_N167S_YF] , what value of phosphorylation enrichment is listed for Jak2 (UniProt O60674)?
[reply] 0.422

====

Target: EPHB2 (UniProt P29323)
Sequence (P29323 whole entry, looked up): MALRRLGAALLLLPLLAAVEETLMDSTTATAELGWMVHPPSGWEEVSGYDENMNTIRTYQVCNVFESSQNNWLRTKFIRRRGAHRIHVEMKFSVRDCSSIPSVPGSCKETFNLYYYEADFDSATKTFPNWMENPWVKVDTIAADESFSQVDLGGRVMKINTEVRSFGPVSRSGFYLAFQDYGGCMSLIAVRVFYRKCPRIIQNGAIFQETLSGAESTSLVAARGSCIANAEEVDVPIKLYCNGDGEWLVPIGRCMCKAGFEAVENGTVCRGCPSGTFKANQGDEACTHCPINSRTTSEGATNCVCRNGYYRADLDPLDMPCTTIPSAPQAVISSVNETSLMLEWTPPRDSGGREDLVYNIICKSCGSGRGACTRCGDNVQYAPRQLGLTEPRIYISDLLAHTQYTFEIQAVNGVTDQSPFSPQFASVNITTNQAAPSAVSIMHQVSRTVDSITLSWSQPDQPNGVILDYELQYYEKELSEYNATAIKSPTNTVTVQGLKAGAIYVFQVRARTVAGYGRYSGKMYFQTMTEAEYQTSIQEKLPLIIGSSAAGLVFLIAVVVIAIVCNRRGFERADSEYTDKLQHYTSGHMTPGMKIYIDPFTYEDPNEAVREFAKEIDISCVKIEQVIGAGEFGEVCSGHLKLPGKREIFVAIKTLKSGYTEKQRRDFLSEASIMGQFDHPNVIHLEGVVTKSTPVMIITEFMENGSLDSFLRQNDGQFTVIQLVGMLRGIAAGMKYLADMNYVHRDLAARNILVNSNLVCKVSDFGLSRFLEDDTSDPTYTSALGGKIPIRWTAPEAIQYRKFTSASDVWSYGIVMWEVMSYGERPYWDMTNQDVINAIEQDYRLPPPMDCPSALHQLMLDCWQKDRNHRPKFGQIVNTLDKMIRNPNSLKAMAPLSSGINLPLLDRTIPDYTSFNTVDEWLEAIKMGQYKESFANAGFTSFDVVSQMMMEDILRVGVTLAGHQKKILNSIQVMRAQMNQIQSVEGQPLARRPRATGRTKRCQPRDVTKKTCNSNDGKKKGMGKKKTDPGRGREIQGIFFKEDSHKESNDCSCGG
Assay: phosphorylation enrichment, bacterial display (enrichment ratio); higher = better substrate or ligand; peptides without Tyr show the background
Assign Fulfilled to entries whose phosphorylation enrichment meets or exceeds 0.6; assign Not fulfilled to the rest.

Example cases with answers are listed next.
> print(dat)
                       primary.sequence               tested.on          label
 1   LAARFYNWVCF [FLT4_Y1231_S1235C_YF]  EPHB2 (UniProt P29323)      Fulfilled
 2      ATDLAYFLVRE [ASL_Y375_K380E_YF]  EPHB2 (UniProt P29323)      Fulfilled
 3            EHEALYLEADL [CENPF_Y1920]  EPHB2 (UniProt P29323)      Fulfilled
 4      FADIAYSFRHG [PAH_Y166_N167S_YF]  EPHB2 (UniProt P29323)  Not fulfilled
 5  QFNMQYSSSAA [ERBB2IP_Y981_I979M_YF]  EPHB2 (UniProt P29323)  Not fulfilled
 6      PSAELYSYALP [PDGFRB_Y716_N718Y]  EPHB2 (UniProt P29323)      Fulfilled
 7               IPGGIYDADLN [CST4_Y35]  EPHB2 (UniProt P29323)      Fulfilled
 8        FSLIHYASIVD [MYH7_Y582_G584S]  EPHB2 (UniProt P29323)      Fulfilled
 9       ILQSMYGCDVG [HLA-B_Y123_T118I]  EPHB2 (UniProt P29323)  Not fulfilled
10     FRDALYKFIVD [PHEX_Y250_M253I_YF]  EPHB2 (UniProt P29323)  Not fulfilled

[ask] Tell me whether phosphorylation enrichment is at least 0.6 here: AVARPYHIQKW [ACSBG1_Y677_A673V]
[reply] Not fulfilled

[ask] Tell me whether phosphorylation enrichment is at least 0.6 here: YDDGKYVYVVT [RPS6KA3_Y488]
[reply] Fulfilled

[ask] Tell me whether phosphorylation enrichment is at least 0.6 here: HEKFLYFLPAS [DYNC2H1_Y346]
[reply] Fulfilled

[ask] Tell me whether phosphorylation enrichment is at least 0.6 here: ENAGFYFQVSA
[reply] Not fulfilled

[ask] Tell me whether phosphorylation enrichment is at least 0.6 here: KLVDVYVNDAF [PGK1_Y161_G158V]
[reply] Not fulfilled

[ask] Tell me whether phosphorylation enrichment is at least 0.6 here: MAYDRYAAICS [OR8H2_Y123_H120Y]
[reply] Fulfilled

[ask] Tell me whether phosphorylation enrichment is at least 0.6 here: GPQGFYSNKLV [PTPN14_Y506_V505F]
[reply] Not fulfilled

[ask] Tell me whether phosphorylation enrichment is at least 0.6 here: QKPLGYFRVNL [GALE_Y104_D103G_YF]
[reply] Fulfilled

[ask] Tell me whether phosphorylation enrichment is at least 0.6 here: CTTIHYNYICN [TP53_Y234_M237I]
[reply] Not fulfilled

[ask] Tell me whether phosphorylation enrichment is at least 0.6 here: SVVVPYELPEV [TP53_Y220_P222L]
[reply] Fulfilled

====

Target: Fes (UniProt P07332)
Sequence (P07332 whole entry, looked up): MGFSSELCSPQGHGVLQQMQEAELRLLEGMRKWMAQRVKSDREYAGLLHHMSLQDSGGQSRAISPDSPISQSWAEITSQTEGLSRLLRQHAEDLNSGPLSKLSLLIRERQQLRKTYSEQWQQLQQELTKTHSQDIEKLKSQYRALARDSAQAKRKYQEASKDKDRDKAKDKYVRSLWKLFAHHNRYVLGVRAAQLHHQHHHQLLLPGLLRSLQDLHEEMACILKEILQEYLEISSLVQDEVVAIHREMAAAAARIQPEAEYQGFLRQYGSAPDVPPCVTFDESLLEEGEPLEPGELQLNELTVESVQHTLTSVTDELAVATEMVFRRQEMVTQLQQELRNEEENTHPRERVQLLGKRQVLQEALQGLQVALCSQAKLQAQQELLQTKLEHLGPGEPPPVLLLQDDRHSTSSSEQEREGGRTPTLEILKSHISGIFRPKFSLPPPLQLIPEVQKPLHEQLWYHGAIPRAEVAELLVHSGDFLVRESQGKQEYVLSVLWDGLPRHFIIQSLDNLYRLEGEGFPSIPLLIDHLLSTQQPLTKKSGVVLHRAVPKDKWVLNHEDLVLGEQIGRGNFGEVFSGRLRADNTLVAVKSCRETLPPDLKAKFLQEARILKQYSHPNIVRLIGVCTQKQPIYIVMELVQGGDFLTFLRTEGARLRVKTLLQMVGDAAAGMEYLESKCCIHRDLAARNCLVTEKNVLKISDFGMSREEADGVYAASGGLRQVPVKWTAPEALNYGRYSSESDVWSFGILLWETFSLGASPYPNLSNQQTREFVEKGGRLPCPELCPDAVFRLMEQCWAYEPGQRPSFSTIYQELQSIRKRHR
Assay: phosphorylation enrichment, bacterial display (enrichment ratio); higher = better substrate or ligand; peptides without Tyr show the background
Assign condition met to entries whose phosphorylation enrichment meets or exceeds 0.8; assign condition not met to the rest.

Example cases with answers are listed next.
> print(dat)
                    primary.sequence          label
1           ENGPYYTSYPP [GDAP2_Y488]  condition met
2          QKDTFYGLRSL [IGSF10_Y126]  condition met
3             GVRLYYRVMES [RB1_Y454]  condition met
4  LDFNEYFRGLN [HPRT1_Y198_D201G_YF]  condition met
5          NDTAGYFIIGG [SEL1L3_Y399]  condition met

[ask] Tell me whether phosphorylation enrichment is at least 0.8 here: FGSRLYKFAFK [FANCD2_Y458_L456R_YF]
[reply] condition not met

[ask] Tell me whether phosphorylation enrichment is at least 0.8 here: DAVCYYRMENA [NPHS2_Y195_I192V]
[reply] condition met

[ask] Tell me whether phosphorylation enrichment is at least 0.8 here: EKMWTYMRSAE [GRIA4_Y695]
[reply] condition met

[ask] Tell me whether phosphorylation enrichment is at least 0.8 here: SNSATYSGSVA [PDLIM5_Y382]
[reply] condition not met

[ask] Tell me whether phosphorylation enrichment is at least 0.8 here: GDGRFYMKEAI [PGM1_Y66]
[reply] condition met

[ask] Tell me whether phosphorylation enrichment is at least 0.8 here: NFRPGYNNFFN [USH2A_Y467_YF]
[reply] condition not met

[ask] Tell me whether phosphorylation enrichment is at least 0.8 here: IFHENYNAGTF [CFI_Y421_YF]
[reply] condition not met

[ask] Tell me whether phosphorylation enrichment is at least 0.8 here: KKIMGYSIRTI [IDS_Y490_I485K]
[reply] condition not met

[ask] Tell me whether phosphorylation enrichment is at least 0.8 here: YDCKWYIPLTD [BCR_Y756]
[reply] condition met

[ask] Tell me whether phosphorylation enrichment is at least 0.8 here: TSSAGYRRTPS [ABI1_Y333_G331A]
[reply] condition not met

[ask] Tell me whether phosphorylation enrichment is at least 0.8 here: AYGNLYGSRKQ [YIPF7_Y59]
[reply] condition not met

[ask] Tell me whether phosphorylation enrichment is at least 0.8 here: RPIEVYLCPEE [E2F3_Y349_G344R]
[reply] condition met

[ask] Tell me whether phosphorylation enrichment is at least 0.8 here: REEKNYKHKET [BCLAF1_Y459_L461H]
[reply] condition met
